# Target Of Assay: T1, human IL-18 binding protein (IL-18BP) (human, UniProt O95998 31-194)
# T1 sequence (looked up): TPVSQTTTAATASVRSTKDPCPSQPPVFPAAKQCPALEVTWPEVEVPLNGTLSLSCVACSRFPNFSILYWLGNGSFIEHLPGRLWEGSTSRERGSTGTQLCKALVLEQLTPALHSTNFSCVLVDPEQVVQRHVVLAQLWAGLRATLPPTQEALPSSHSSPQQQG
# Test Protocol: cell-based or functional assay
Output criterion met for records whose HEK-Blue EC50 pM, +50 nM BP is lower than 0.7 pM, criterion not met for records at or above 0.7 pM.

IL-18 variant G3V, M60K, D157E (ligand) YFVKLESKLSVIRNLNDQVLFIDQGNRPLFEDMTDSDMRDNAPRTIFIISMYKDSQPRGKAVTISVKSEKISTLSSENKIISFKEMNPPDNIKDTKSDIIFFQRSVPGHDNKMQFESSSYEGYFLASEKERDLFKLILKKEDELGDRSIMFTVQNEE
criterion met
IL-18 variant M60K, D157E (ligand) YFGKLESKLSVIRNLNDQVLFIDQGNRPLFEDMTDSDMRDNAPRTIFIISMYKDSQPRGKAVTISVKSEKISTLSSENKIISFKEMNPPDNIKDTKSDIIFFQRSVPGHDNKMQFESSSYEGYFLASEKERDLFKLILKKEDELGDRSIMFTVQNEE
criterion not met
Comparator 1 (human IL-18 variant M51K, K53S, Q56L, P57A, M60L, S105D, D110S, N111R) (ligand) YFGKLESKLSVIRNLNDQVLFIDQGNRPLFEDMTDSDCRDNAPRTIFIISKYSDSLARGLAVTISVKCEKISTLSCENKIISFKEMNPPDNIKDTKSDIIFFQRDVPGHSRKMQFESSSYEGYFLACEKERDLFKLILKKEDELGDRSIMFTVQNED
criterion met
IL-18 variant G3T, E6K, K53A (ligand, also called G3T, K53A, E6K) YFTKLKSKLSVIRNLNDQVLFIDQGNRPLFEDMTDSDMRDNAPRTIFIISMYADSQPRGMAVTISVKSEKISTLSSENKIISFKEMNPPDNIKDTKSDIIFFQRSVPGHDNKMQFESSSYEGYFLASEKERDLFKLILKKEDELGDRSIMFTVQNED
criterion met
IL-18 variant G3V, M60K (ligand) YFVKLESKLSVIRNLNDQVLFIDQGNRPLFEDMTDSDMRDNAPRTIFIISMYKDSQPRGKAVTISVKSEKISTLSSENKIISFKEMNPPDNIKDTKSDIIFFQRSVPGHDNKMQFESSSYEGYFLASEKERDLFKLILKKEDELGDRSIMFTVQNED
criterion met
IL-18 variant G3V, E6K, K53A (ligand, also called G3V, K53A, E6K) YFVKLKSKLSVIRNLNDQVLFIDQGNRPLFEDMTDSDMRDNAPRTIFIISMYADSQPRGMAVTISVKSEKISTLSSENKIISFKEMNPPDNIKDTKSDIIFFQRSVPGHDNKMQFESSSYEGYFLASEKERDLFKLILKKEDELGDRSIMFTVQNED
criterion met

Next, consider the following binder.
Strictly below 0.7 pM: is that where HEK-Blue EC50 pM, +50 nM BP of IL-18 variant M60K (ligand) YFGKLESKLSVIRNLNDQVLFIDQGNRPLFEDMTDSDMRDNAPRTIFIISMYKDSQPRGKAVTISVKSEKISTLSSENKIISFKEMNPPDNIKDTKSDIIFFQRSVPGHDNKMQFESSSYEGYFLASEKERDLFKLILKKEDELGDRSIMFTVQNED sits?
criterion not met
